Numbers sourced from the RepoRT retention time repository.

- assay overview: HILIC, Waters ACQUITY UPLC BEH Amide, 100 × 2.1 mm, 1.7 µm; A: water + 0.125% formic acid + 10 mM ammonium formate; B: 5% water + 95% acetonitrile + 0.125% formic acid + 10 mM ammonium formate; gradient (min/%B) 0/100 2/100 7.7/70 9.5/40 10.25/30 12.75/100 17/100
- conditions: stereoisomer not certain
Recorded LC retention time determines the label; the label ranges are L (below 2 min), M (2 min to below 9 min), H (9 min or more)

Solved cases (6 shown):
| compound | class label |
| --- | --- |
| CCc1c2c(nc3ccc(OC(=O)N4CCC(N5CCCCC5)CC4)cc13)-c1cc3c(c(=O)n1C2)COC(=O)C3(O)CC (centres undefined) [Irinotecan] | M |
| O=C(c1ccccc1)c1ccc2n1CCC2C(=O)O (centres undefined) [Toradol] | L |
| CC(C)C(NC(=O)C(N)CCCN=C(N)N)C(=O)O (centres undefined) [Arg-Val] | H |
| CCNC(C)Cc1cccc(C(F)(F)F)c1 (centres undefined) [Fenfluramine] | M |
| NC1C(O)OC(COP(=O)(O)O)C(O)C1O (centres undefined) [Glucosamine-6-phosphate] | H |
| CC(=O)OCCc1ccccc1 [Phenethylacetate] | L |

Please classify: NCCCCC(NC(=O)C(N)CCC(=O)O)C(=O)O (centres undefined) [Glu-Lys] H

Please let me know in which category the item CC(=O)NC(CCC(=O)O)C(=O)O (centres undefined) [N-Acetylglutamic acid] belongs. M

Band for CCCCCCCCCOc1ccc2[nH]cc(CCN)c2c1 [5-Nonyloxytryptamine] ? M

###

- assay overview: HILIC, Waters ACQUITY UPLC BEH Amide, 100 × 2.1 mm, 1.7 µm; A: water + 0.125% formic acid + 10 mM ammonium formate; B: 5% water + 95% acetonitrile + 0.125% formic acid + 10 mM ammonium formate; gradient (min/%B) 0/100 2/100 7.7/70 9.5/40 10.25/30 12.75/100 17/100
- conditions: stereoisomer not certain
Listed here are compounds together with their documented LC retention time.
Write it as a number; the unit min goes unstated.

Reference set, count: 2
| compound | unit abbreviation | LC retention time |
| --- | --- | --- |
| CN1CC(=O)N2C(Cc3c([nH]c4ccccc34)C2c2ccc3c(c2)OCO3)C1=O (stereo not drawn) | min | 1.19 |
| NC(=O)c1ccc[n+](C2OC(CO)C(O)C2O)c1 (stereo not drawn) [Nicotinamide riboside cation] | min | 7.51 |

If you can, please state the reported LC retention time value of O=c1ccn(C2OC(COP(=O)(O)O)C(O)C2O)c(=O)[nH]1 (stereo not drawn) [Uridine 5'-monophosphate] . 8.97

Tell me the measured LC retention time of CCOC(=O)OC1(C(=O)OCCl)CCC2C3CCC4=CC(=O)C=CC4(C)C3C(O)CC21C (stereo not drawn) [Loteprednol Etabonate] , please. 0.97

Suppose we examine the compound Cc1c(O)cccc1C(=O)NC(CSc1ccccc1)C(O)CN1CC2CCCCC2CC1C(=O)NC(C)(C)C (stereo not drawn) ; what LC retention time value has been reported? 1.55

###

- assay overview: HILIC, Waters ACQUITY UPLC BEH Amide, 100 × 2.1 mm, 1.7 µm; A: water + 0.125% formic acid + 10 mM ammonium formate; B: 5% water + 95% acetonitrile + 0.125% formic acid + 10 mM ammonium formate; gradient (min/%B) 0/100 2/100 7.7/70 9.5/40 10.25/30 12.75/100 17/100
- conditions: stereoisomer not certain
LC retention time below 4 min gives 0 (no); LC retention time at or above it gives 1 (yes).

| compound | class label |
| --- | --- |
| COc1cc(C=CC(=O)O)cc(OC)c1O | 0 (no) |
| CCCCC(N)C(=O)O (stereo unspecified) | 1 (yes) |
| COc1cc(/C=C/C(=O)O)ccc1O | 0 (no) |
| C=C(OP(=O)(O)O)C(=O)O | 1 (yes) |
| CN1C2CCC1C(C(=O)O)C(OC(=O)c1ccccc1)C2 (stereo unspecified) | 0 (no) |

Read the next record carefully.
I'd appreciate it if you could say whether `Cc1sc(N)c(C(=O)c2cccc(C(F)(F)F)c2)c1C` has LC retention time at least equal to 4 min. 0 (no)
